# TESTED_TARGET: UniProtKB Q96RI1
# Sequence (Q96RI1 248-486): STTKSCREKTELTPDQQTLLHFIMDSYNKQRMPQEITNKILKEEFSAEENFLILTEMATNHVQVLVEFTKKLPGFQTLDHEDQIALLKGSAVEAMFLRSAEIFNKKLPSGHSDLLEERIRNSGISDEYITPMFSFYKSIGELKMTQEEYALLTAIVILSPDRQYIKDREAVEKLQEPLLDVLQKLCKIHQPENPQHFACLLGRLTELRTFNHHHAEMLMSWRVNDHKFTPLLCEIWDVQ
PROPERTY_NAME: Kd (nM)
Write the number in nM without appending the unit.

get_value(item= `O=C(O)C1=CO[C@@H](O[C@@H]2O[C@H](CO)[C@@H](O)[C@H](O)[C@H]2O)[C@@H]2C(CO)=CC[C@H]12` , readout=Kd) returns 390
